Attribution: patent US20080312227A1

Test system: human IL-1 β production by PBMC
measurement-description: IL-1 β assay (LPS-stimulated PBMC, sandwich ELISA)
Assay type: cell-based
condition-details: Homo sapiens, PBMC stimulated with LPS 1 μg/ml, 72 hours, read-out: IC50 in the IL-1 β test (50% suppression of human IL-1 β)
measured-endpoint: pIC50
Please report pIC50 as the negative decimal logarithm of the molar concentration, giving only the number.

For the molecule shown here, `COc1ccc(-c2cnc3nc(N)nc(Nc4cccc(Br)c4)c3c2)cc1OC` , give the reported pIC50.
5.15
